Source listed as the Human Domainome abundance scans (Beltran et al. 2025).

This listing pairs variants with measured abundance fitness.
B1: Transcription elongation factor A N-terminal and central domain-containing protein, residues 30 to 77; numbered along this chain, Q8N8B7 (parent)
chain: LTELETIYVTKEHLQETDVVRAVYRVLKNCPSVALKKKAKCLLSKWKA

- Variants of: B1
- test.method.notes: abundance fitness (aPCA) (normalised: wild type 0, dead -1); higher = more abundant; growth selection in yeast, the domain comes from the species named
- cond: Homo sapiens
measured.metric: abundance fitness

1) C30A = -0.338
2) R21N = -0.113
3) T6H = -0.147
4) T6S = 0.12
5) K38I = -0.266
6) D18T = 0.158
7) K37Q = -0.553
8) Y24R = 0.277
9) K45C = -0.352
10) K47G = -0.605
11) K37N = -0.155
12) V20Q = -0.633
13) R21E = -0.647
14) K36P = -0.211
15) K37H = -0.609
16) R21G = -0.042
17) E5S = -0.809
18) P31T = 0.341
19) W46I = 0.258
20) I7G = 0.224
21) V26A = 0.154
22) V19G = -0.094
